Assignment: determine reported Population Hoechst High Intensity Objects (%) for the given compounds.
System: HEK-293T
Test: Multiplex assay against HEK293T
Assay type: toxicity, cell-based
Settings: human, 12 h, 1 µM, compound concentration 1 uM, replicate 2
Answer shape: numeric part, then the unit.

Here is how some compounds turned out for Population Hoechst High Intensity Objects (%).
>  <compound>
Cc1ccc(/C(=C\CN2CCCC2)c2ccccn2)cc1 [TRIPROLIDINE]

>  <endpoint-value>
5%

$$$$
>  <compound>
O=C1COc2nccc(-c3ccccc3F)c2CN1Cc1cc(C(F)(F)F)cc(C(F)(F)F)c1

>  <endpoint-value>
10%

$$$$
>  <compound>
CNC[C@H](O)c1ccc(O)c(O)c1 [EPINEPHRINE]

>  <endpoint-value>
6%

$$$$
>  <compound>
O=C(NCCO)c1cccc(-c2cc(Nc3ccc(OC(F)(F)F)cc3)ncn2)c1

>  <endpoint-value>
6%

$$$$

// for each compound in input: emit Population Hoechst High Intensity Objects (%)
1. O=C(O)Cc1ccccc1Nc1c(Cl)cccc1Cl [DICLOFENAC]
2. COc1c(C)cc(NC(=O)c2nn(Cc3ccc(F)cc3)c3c2CN(C(=O)c2ccc[nH]2)C[C@]3(C)C(N)=O)cc1C

1: 10%; 2: 5%

----------
Assignment: determine reported Total Cell Count for the given compounds.
Tested on: Fibroblast
Assay: Multiplex assay against human fibroblast
Assay type: toxicity, cell-based
Conditions: 12 h, 10 µM, compound concentration 10 uM, replicate 2
Numbers only.

>  <compound>
N[C@@]1(C(=O)O)CO[C@H]2[C@H](C(=O)O)[C@H]21 [LY-379268]

>  <tgt>
Fibroblast

>  <Total Cell Count>
128

$$$$

// for each compound in input: emit Total Cell Count
1. CC(C)(C)c1ccc(S(=O)(=O)Nc2ccc(Cl)cc2C(=O)c2cc[n+]([O-])cc2)cc1 [VERCIRNON]
2. COc1cc(C(=O)N(CCCc2ccccc2)Cc2ccc(CC(=O)O)cc2)cc(OC)c1C
3. Cc1ccc(C(C)(O)c2nc3ccccc3s2)c(C)c1 (stereo unspecified)
4. CCNC1(C(N)=O)CCN(c2ncnc3c2nc(-c2ccccc2Cl)n3-c2ccc(Cl)cc2)CC1 [OTENABANT]
5. Cc1ccccc1C(=O)Nc1ccc(C(=O)N2CCCC(N(C)C)c3ccccc32)cc1.Cl (stereo unspecified)

114
181
149
216
109

----------
Test system: U2OS
Assay: Multiplex assay against U2OS
Assay type: toxicity, cell-based
Conditions: human, 48 h, 10 µM, compound concentration 10 uM, replicate 2
Assignment: determine reported Population Membrane Permeable-Phenotype (%) for the given compounds.
Answer shape: numeric part, then the unit.

>  <compound>
CC1(COc2ccc3c(c2)ncn3-c2ccc3cccc(N4CCC(N)CC4)c3n2)COC1 [CRENOLANIB]

>  <tgt>
U2OS

>  <endpoint-value>
50%

$$$$

// for each compound in input: emit Population Membrane Permeable-Phenotype (%)
1. C[C@H]1[C@H]2CC[C@H]3[C@@H]4CC=C5C[C@@H](N(C)C)CC[C@]5(C)[C@H]4CC[C@]23CN1C [CONESSINE]
2. CSCC[C@H](NC=O)C(=O)N[C@@H](CC(C)C)C(=O)N[C@@H](Cc1ccccc1)C(=O)O
3. Cc1nc2ccc(Oc3ccc(F)cc3)cc2c(=O)n1C[C@H]1CCCN(C(C)C)C1.Cl
4. CC(C)(C)c1ccc(S(=O)(=O)Nc2ccc(Cl)cc2C(=O)c2cc[n+]([O-])cc2)cc1 [VERCIRNON]
5. Cc1ccc(F)cc1C(=O)Nc1ccc(C(=O)N2Cc3cccn3Cc3ccccc32)c(Cl)c1 [LIXIVAPTAN]

["9%", "80%", "27%", "8%", "60%"]

----------
Assignment: determine reported Population Fragmented Nuclei (%) for the given molecules.
System: Fibroblast
Experiment: Multiplex assay against human fibroblast
Assay type: toxicity, cell-based
Settings: 24 h, 1 µM, compound concentration 1 uM, replicate 1
Answers are plain numbers, in %.

Here is how some molecules turned out for Population Fragmented Nuclei (%).
>  <molecule>
Cc1ccc(F)cc1C(=O)Nc1ccc(C(=O)N2Cc3cccn3Cc3ccccc32)c(Cl)c1 [LIXIVAPTAN]

>  <tgt>
Fibroblast

>  <reading-unit>
%

>  <Population Fragmented Nuclei (%)>
12

$$$$
>  <molecule>
O=C(O)c1cc2ccccc2c(Cc2c(O)c(C(=O)O)cc3ccccc23)c1O [PAMOIC ACID]

>  <tgt>
Fibroblast

>  <reading-unit>
%

>  <Population Fragmented Nuclei (%)>
10

$$$$
>  <molecule>
CN1CCN(c2nc3cc(C(F)(F)F)ccc3n3cccc23)CC1.O=C(O)/C=C\C(=O)O.O=C(O)/C=C\C(=O)O

>  <tgt>
Fibroblast

>  <reading-unit>
%

>  <Population Fragmented Nuclei (%)>
16

$$$$
>  <molecule>
Oc1c(CN2CCN(c3ccccn3)CC2)cc(Cl)c2cccnc12

>  <tgt>
Fibroblast

>  <reading-unit>
%

>  <Population Fragmented Nuclei (%)>
19

$$$$
>  <molecule>
CSc1ccccc1N1CCN(CCCCCC(=O)NC2CCCc3ccccc32)CC1.Cl (configuration not stated)

>  <tgt>
Fibroblast

>  <reading-unit>
%

>  <Population Fragmented Nuclei (%)>
29

$$$$
>  <molecule>
CC[C@H]1OC(=O)[C@H](C)[C@@H](O[C@H]2C[C@@](C)(OC)[C@@H](O)[C@H](C)O2)[C@H](C)[C@@H](O[C@@H]2O[C@H](C)C[C@H](N(C)C)[C@H]2O)[C@@]2(C)CC(C)=C(O2)[C@H](C)[C@@H](O)[C@]1(C)O

>  <tgt>
Fibroblast

>  <reading-unit>
%

>  <Population Fragmented Nuclei (%)>
18

$$$$

// for each molecule in input: emit Population Fragmented Nuclei (%)
1. O=S(=O)(c1ccccc1)c1cnc2c(N3CCNCC3)cccc2c1 [INTEPIRDINE]
2. O=C(NCCO)c1cccc(-c2cc(Nc3ccc(OC(F)(F)F)cc3)ncn2)c1
3. O=C(NCC(=O)N1CC[C@H](N[C@H]2CC[C@@](O)(c3ccc(-c4ncccn4)cn3)CC2)C1)c1cccc(C(F)(F)F)c1 [PF-4136309]
4. Cc1nc2ccc(Oc3ccc(F)cc3)cc2c(=O)n1C[C@H]1CCCN(C(C)C)C1.Cl
5. COc1ccc2c(c1)C(C(=O)N(Cc1ccc(N(C)C)cc1)c1ccc(C(C)C)cc1)CCC2.Cl (configuration not stated)
6. C[C@@H]1C[C@H]2[C@@H]3CCC4=CC(=O)C=C[C@]4(C)[C@@]3(F)[C@@H](O)C[C@]2(C)[C@@]1(O)C(=O)CO [DEXAMETHASONE]

[16, 16, 14, 17, 11, 14]

----------
System: Fibroblast
Experiment: Multiplex assay against human fibroblast
Assay type: toxicity, cell-based
Settings: 24 h, 1 µM, compound concentration 1 uM, replicate 1
Assignment: determine reported Population Mitochondria Different-Phenotype (%) for the given compounds.
Answers are plain numbers, in %.

>  <compound>
CCCC(CCC)C(=O)O

>  <tgt>
Fibroblast

>  <endpoint-value>
2

$$$$

// for each compound in input: emit Population Mitochondria Different-Phenotype (%)
1. N#Cc1c(N)nc(SCc2csc(-c3ccc(Cl)cc3)n2)c(C#N)c1-c1ccc(OCCO)cc1
2. O=S(=O)(c1ccccc1)c1cnc2c(N3CCNCC3)cccc2c1 [INTEPIRDINE]
3. Cc1ccc(/C(=C\CN2CCCC2)c2ccccn2)cc1

[5, 4, 3]

----------
Test system: Fibroblast
Assay: Multiplex assay against human fibroblast
Format: toxicity, cell-based
Details: 24 h, 10 µM, compound concentration 10 uM, replicate 2
recorded-metric: Population Healthy Nuclei (%)
Numbers only, in %.

>  <compound>
Cc1ccc(F)cc1C(=O)Nc1ccc(C(=O)N2Cc3cccn3Cc3ccccc32)c(Cl)c1

>  <endpoint-value>
51

$$$$
>  <compound>
O=S(=O)(c1ccccc1)c1cnc2c(N3CCNCC3)cccc2c1 [INTEPIRDINE]

>  <endpoint-value>
50

$$$$

// for each compound in input: emit Population Healthy Nuclei (%)
1. O=C(O)Cc1ccccc1Nc1c(Cl)cccc1Cl
2. CCOc1c2c(c(OCC)c3ncccc13)CN(c1ccc(CS(=O)(=O)NC(=O)Cc3ccccc3OC)cc1C)C2=O
3. CCCN1CCC[C@@H]2Cc3n[nH]cc3C[C@H]21.Cl [QUINPIROLE HYDROCHLORIDE]

1: 50; 2: 49; 3: 51

----------
Test system: Fibroblast
Assay: Multiplex assay against human fibroblast
Format: toxicity, cell-based
Details: 48 h, 1 µM, compound concentration 1 uM, replicate 2
Quick rule for you: Population Healthy Nuclei (%) under 50% gets YES, anything else gets NO.

Use these answered entries as a reference point.
>  <molecule>
CC(=O)NCCc1c(Cc2ccccc2)[nH]c2ccccc12

>  <tgt>
Fibroblast

>  <assigned-class>
NO

$$$$
>  <molecule>
CN(C)CCCc1cc(C(=O)Nc2ccc(-c3ccncc3)cc2)ccc1O.Cl.Cl

>  <tgt>
Fibroblast

>  <assigned-class>
NO

$$$$
>  <molecule>
CNC[C@H](O)c1ccc(O)c(O)c1 [EPINEPHRINE]

>  <tgt>
Fibroblast

>  <assigned-class>
YES

$$$$
>  <molecule>
N#Cc1c(N)nc(SCc2csc(-c3ccc(Cl)cc3)n2)c(C#N)c1-c1ccc(OCCO)cc1

>  <tgt>
Fibroblast

>  <assigned-class>
YES

$$$$
>  <molecule>
O=C(NCCO)c1cccc(-c2cc(Nc3ccc(OC(F)(F)F)cc3)ncn2)c1

>  <tgt>
Fibroblast

>  <assigned-class>
NO

$$$$

Hi there! Is Population Healthy Nuclei (%) for Cl.Clc1ccc2nsnc2c1NC1=NCCN1 [TIZANIDINE HYDROCHLORIDE] below 50%, do you know?
YES

Hi there! Is Population Healthy Nuclei (%) for `N[C@@]1(C(=O)O)CO[C@H]2[C@H](C(=O)O)[C@H]21` below 50%, do you know?
NO

Hi there! Is Population Healthy Nuclei (%) for `COc1cc(C(=O)N(CCCc2ccccc2)Cc2ccc(CC(=O)O)cc2)cc(OC)c1C` below 50%, do you know?
YES

Hi there! Is Population Healthy Nuclei (%) for `O=C(O)Cc1ccccc1Nc1c(Cl)cccc1Cl` below 50%, do you know?
NO

Hi there! Is Population Healthy Nuclei (%) for `O=C1COc2nccc(-c3ccccc3F)c2CN1Cc1cc(C(F)(F)F)cc(C(F)(F)F)c1` below 50%, do you know?
NO

Hi there! Is Population Healthy Nuclei (%) for `CN1CCN(c2nc3cc(C(F)(F)F)ccc3n3cccc23)CC1.O=C(O)/C=C\C(=O)O.O=C(O)/C=C\C(=O)O` below 50%, do you know?
YES

Hi there! Is Population Healthy Nuclei (%) for `CCCC(CCC)C(=O)O` below 50%, do you know?
YES

Data provenance is ChEMBL document CHEMBL5058577.
